From: the supplement of paper PMC12764529

# test description: folding stability dG unfold from chymotrypsin proteolysis; higher = more stable
Each entry below lists one item and its recorded folding stability dG unfold value.

residue sequence	display unit	folding stability dG unfold
SAMIVVTLTINPITGKPILIFDPGVGVYAIDPETGEPHEATVDGDTLTLNFGNRPILLTPEAVIPPEELSAG [r14_208_TrMRF]	kcal/mol	1.41
SAGGMKITKEGNELTLTYPNLTVTYDPNTGKMTITNPATGKTVTIPVPATSLEEKLAAVEEVKAALPSAGGS [r8_447_JUSTAS]	kcal/mol	0.707
SAGPDLPFDVRLVEVRDMEVRVTPDGRLVVTLPMVGRHPSGFLVRRTIRFEPETDRVEATGEVRPLDESAGG [r19_320_TrMRF]	kcal/mol	0.804
SAGGANIHVRMENPGDGKPMSFMIPVKEVREAKQEGKDEIKIPFGGGPMKVEIEPLPDGWVHIRMRMPSAGG [r13_171_TrROS]	kcal/mol	-0.0135
SAMKIKPGEKVKIKIEVKNKKTKKKKTIEIEVPVDEETGEVFTEDELKKLLEKLGIEVEEVKIVEIEKESAG [r14_93_TrROS_Hall]	kcal/mol	0.601
KKVKIEIEVLSKTEEGYVMIAKAKYEEVEKVFEKPYKSKNPIETIKKIVKELFPGPEVTEVKVKYYPKEKKS [r1_399_TrMRF]	kcal/mol	1.47
SMRKVKRKVTLEITIKVPESVLKPIPDADYYTYPFDDKLVKPDAVIPRTVTITGPYTEEEVEKLVKEILSSA [r9_165_JUSTAS]	kcal/mol	-0.613
